// data source = patent US20240376097A1

Target: recombinant human Bcl-2-G101V protein (Homo sapiens (Human), UniProt P10415, G101V)
Experiment: Bcl-2-G101V TR-FRET Assay
Format: binding
Conditions: Bcl-2 G101V mutant, TR-FRET; read-out: Biochemical assay (IC50, nM) Bcl-2 G101V

>  <Compound>
COc1ccc(CN(C)C2CCN(C3CC4(CCN(c5ccc(C(=O)NS(=O)(=O)c6ccc(NC[C@H]7CC[C@](C)(O)CC7)c([N+](=O)[O-])c6)c(Oc6cnc7[nH]ccc7c6)c5)CC4)C3)C(c3ccccc3C3CC3)C2)cc1 (stereo partly shown)

>  <IC50>
0.25 nM

$$$$
>  <Compound>
CC(C)c1ccccc1C1CN(Cc2ccc(C(F)(F)F)cc2)CCN1C1CC2(CCN(c3ccc(C(=O)NS(=O)(=O)c4ccc(NC[C@H]5CC[C@](C)(O)CC5)c([N+](=O)[O-])c4)c(Oc4cnc5[nH]ccc5c4)c3)CC2)C1 (stereo partly shown)

>  <IC50>
3.8 nM

$$$$
>  <Compound>
COc1ccc(CN2CCN(C3CC4(CCN(c5ccc(C(=O)NS(=O)(=O)c6ccc(NCC7(F)CCOCC7)c([N+](=O)[O-])c6)c(Oc6cnc7[nH]ccc7c6)c5)CC4)C3)[C@H](c3ccccc3C(C)C)C2)cc1 (single isomer, unassigned)

>  <IC50>
0.28 nM

$$$$
>  <Compound>
COc1ccc(CN2CCN(C3CC4(CCN(c5ccc(C(=O)NS(=O)(=O)c6ccc(NC[C@H]7CC[C@](C)(O)CC7)c([N+](=O)[O-])c6)c(Oc6cnc7[nH]ccc7c6)c5)CC4)C3)C(c3cc(F)ccc3C(C)C)C2)cc1 (stereo partly shown)

>  <IC50>
1.1 nM

$$$$
